Where do these numbers come from? They come from PubChem BioAssay (NCATS).

Assay: qHTS for differential inhibitors of proliferation of Plasmodium falciparum line W2 (AID 1883);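 also: parasites grown with compound for 72 h before lysis and staining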
Details: Plasmodium falciparum W2 proliferation inhibition; series mostly up to 28.7 µM
Inconclusive results are not listed. Activity calls are given as the source filed them. Calls follow the shape of the dose curve; as a rule, active = well fitted curve in the direction sought with a large enough effect; inconclusive = small, poorly fitted or top-dose-only effect, or another doubt; inactive = no such curve, though single readings can be large or run the other way.
Outcome codes: YES (active), NO (inactive)

>  <compound>
Cc1c(OCC(F)(F)F)ccnc1CS(=O)c1nc2ccccc2[nH]1 (stereo not drawn)

>  <category>
YES

$$$$
>  <compound>
NCC1(CC(=O)O)CCCCC1

>  <category>
NO

$$$$
>  <compound>
N#CC(C#N)=Cc1ccc(O)c(O)c1

>  <category>
YES

$$$$

----------
Experiment: qHTS of pediatric cancer cell lines to identify multiple opportunities for drug repurposing: Primary screen for DAOY cells (AID 1347090); also: nearly all actives have a fitted effect of over 55% in size
Conditions: DAOY medulloblastoma viability, CellTiter-Glo luminescence, 48 h; series mostly up to 46 µM
Records with an inconclusive call do not appear. Calls of active or inactive are those of the source. Calls follow the shape of the dose curve; as a rule, active = well fitted cell-killing curve with a large enough effect; inconclusive = small, poorly fitted or top-dose-only effect; inactive = flat fitted curve, though single readings scatter.
Classes used: active, inactive

>  <molecule>
CC(C)CC(N(C)C)C1(c2ccc(Cl)cc2)CCC1 (configuration not stated)

>  <category>
inactive

$$$$
>  <molecule>
C#CCOC(C(=O)OCCN(C)C)(c1ccccc1)c1ccccc1

>  <category>
inactive

$$$$
>  <molecule>
O=P1(NCCCl)OCCCN1CCCl (configuration not stated)

>  <category>
inactive

$$$$
>  <molecule>
Oc1cc(Cl)ccc1Oc1ccc(Cl)cc1Cl

>  <category>
active

$$$$
>  <molecule>
CC(C)(N)Cc1ccc(Cl)cc1

>  <category>
inactive

$$$$
>  <molecule>
NP(N)(=O)NC(=O)c1ccc(F)cc1

>  <category>
inactive

$$$$
>  <molecule>
Fc1ccc(C(OCCN2CCN(CCCc3ccccc3)CC2)c2ccc(F)cc2)cc1

>  <category>
active

$$$$
